Reference source for all entries: paper PMC3376217

- TGT: TOR2 (Saccharomyces cerevisiae, UniProt P32600)
- RUN_DESCRIPTION: IP radiometric kinase assay on PHAS-I
- Format: biochemical
MEASUREMENT_LABEL: IC50

// field: IC50; key: Nc1ccc(-c2ccc3ncc4ccc(=O)n(-c5ccc(F)c(C(F)(F)F)c5)c4c3c2)cn1 ; value = ~0.05 µM
